These measurements were taken from the supplement of paper PMC10567573.

B1: CFHR2 (parent)
chain: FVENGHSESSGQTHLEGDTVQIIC

Variants of: B1
Experiment: protein stability index of a GFP-peptide fusion (GPS, HEK-293T) (PSI 1-6); higher = more stable;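 further: lentivirally expressed fusions sorted by FACS into six bins by GFP to DsRed ratio, PSI derived from sequencing read proportions per bin multiplied by bin number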
Conditions: c terminus: a fixed tail appended
measured.metric: protein stability index
Give the figure by itself; no unit, no explanation.

Reference set (2 entries):
sequence.content | reading
FVENGHSESSGITHLEGDTVQIIC [Q12I] | 2.06
FVENGHSESSGQTHLEGDTVQSIC [I22S] | 4.26

Give the value of protein stability index reported for the following: FVENGHSESSGQTILEGDTVQIIC [H14I]
3.28

Let me know recorded protein stability index for FVENGHSESSGQTHLVGDTVQIIC [E16V] , thanks.
1.76

Using the record for FVENGHSESSGQTHLEGDYVQIIC [T19Y] , state its measured protein stability index.
2.24

Answer with the recorded protein stability index for the variant listed here: FVENGHSETSGQTHLEGDTVQIIC [S9T]
2.78

Provide protein stability index value for the following variant: FVENGHSESSGQTELEGDTVQIIC [H14E]
4.18

# return recorded protein stability index for input FVENGHSESSGQMHLEGDTVQIIC [T13M]
2.19

Name the recorded protein stability index of the item FVENGHSESSGQTHLEGDTVQIIH [C24H] in your answer.
3.23

Consider the variant FVENGHSESSGQTHLEGDTVQIIQ [C24Q] . State its measured protein stability index.
4.31

Answer with the recorded protein stability index of PVENGHSESSGQTHLEGDTVQIIC [F1P] only.
4.61

Name the recorded protein stability index of the variant listed here: FVENGHSESSPQTHLEGDTVQIIC [G11P]
3.22

Determine its reported protein stability index: FVENGHSESSGQTHLEGDTVQIID [C24D]
4.46

Identify measured protein stability index corresponding to FVENMHSESSGQTHLEGDTVQIIC [G5M]
2.28

Answer with the recorded protein stability index of AVENGHSESSGQTHLEGDTVQIIC [F1A] only.
4.27

// fetch protein stability index given entry FVENGHSESSGQTHLEGDTWQIIC [V20W]
1.57
